Data origin: PubChem BioAssay (EPA / NIEHS)

protocol.description: ATG_VDRE_CIS: Attagene CIS-FACTORIAL HepG2 Assay for human Vitamin D Receptor Element (VDRE) (AID 2282968)
condition.label: HepG2 VDRE cis-reporter transcription, actives raise or lower the signal
Calls of active or inactive are those of the source. How the source made its calls: active means hit-call score of the fitted dose curve at least 0.9, where 1 is the maximum; inactive means score below 0.9.
Field 'call' accepts active, inactive

Reference set, count: 5
[
  {
    "line.notation": "CCc1c(C(=O)NN2CCCCC2)nn(-c2ccc(Cl)cc2Cl)c1-c1ccc(Br)cc1",
    "discrete.label": "active"
  },
  {
    "line.notation": "OC[C@@H](O)[C@@H](O)[C@H](O)[C@H](O)CO",
    "discrete.label": "inactive"
  },
  {
    "line.notation": "CCCCCCCC=O",
    "discrete.label": "inactive"
  },
  {
    "line.notation": "CC(=O)OCCOCCOCCOC(C)=O",
    "discrete.label": "inactive"
  },
  {
    "line.notation": "CC1=C(/C=C/C(C)=C/C=C/C(C)=C/CO)C(C)(C)CCC1",
    "discrete.label": "active"
  }
]

Next:
Test call for this compound, please: O=C(O)CCCCC(=O)O
inactive

====

protocol.description: ATG_FoxO_CIS: Attagene CIS-FACTORIAL HepG2 Assay for human Forkhead box O (FoxO) (AID 2282943)
condition.label: HepG2 Attagene cis-reporter, FoxO element, mRNA; actives raise or lower the signal
The source made the active and inactive calls. How the source made its calls: active means hit-call score of the fitted dose curve at least 0.9, where 1 is the maximum; inactive means score below 0.9.
Field 'call' accepts active, inactive

[
  {
    "molecule": "Cc1cc(=O)[nH]c(=S)[nH]1",
    "discrete.label": "inactive"
  },
  {
    "molecule": "CCOC(=O)CCC(=O)OCC",
    "discrete.label": "inactive"
  },
  {
    "molecule": "CC1(C)CC(N=C=O)CC(C)(CN=C=O)C1 (stereo not drawn)",
    "discrete.label": "inactive"
  },
  {
    "molecule": "CCOC(=O)C(C)(C)Oc1ccc(Cl)cc1",
    "discrete.label": "inactive"
  },
  {
    "molecule": "NS(=O)(=O)c1cc2c(cc1Cl)NCNS2(=O)=O",
    "discrete.label": "inactive"
  },
  {
    "molecule": "CCNc1cccc(C)c1",
    "discrete.label": "inactive"
  },
  {
    "molecule": "OC[C@@H](O)[C@@H](O)[C@H](O)[C@H](O)CO",
    "discrete.label": "inactive"
  },
  {
    "molecule": "CC(CO)OC(C)CO (stereo not drawn) (tested in a mixture with another compound)",
    "discrete.label": "inactive"
  }
]

Next:
Test call for this molecule, please: Oc1ccc2c(c1)OC[C@@H](N1CCC(O)(c3ccc(F)cc3)CC1)[C@H]2O
inactive

====

Read-out: Forkhead box O3 (FOXO3), FOXO3 (gene 2309)
protocol.description: LTEA_HepaRG_FOXO3: Life Technologies and Expression Analysis (LTEA) Assay for Forkhead box O3 (FOXO3) using HepaRG (AID 2283459)
condition.label: mRNA level, 48 h; actives raise or lower the signal
Activity calls are given as the source filed them. How the source made its calls: active means hit-call score of the fitted dose curve at least 0.9, where 1 is the maximum; inactive means score below 0.9.
Field 'call' accepts yes (1) for active, no (0) for inactive

Reference set, count: 5
[
  {
    "compound": "Cc1ccc(C)c(C)c1",
    "discrete.label": "no (0)"
  },
  {
    "compound": "COC(=O)c1ccc(O)cc1",
    "discrete.label": "no (0)"
  },
  {
    "compound": "COc1cc(-c2nc(NC(=O)c3cc4cc(C)cc(C)c4n3CC(=O)O)sc2CCC2CCCCC2)c(OC)cc1Cl",
    "discrete.label": "yes (1)"
  },
  {
    "compound": "OC[C@@H](O)[C@@H](O)[C@H](O)[C@H](O)CO",
    "discrete.label": "no (0)"
  },
  {
    "compound": "COCCOC[C@H](CC1(C(=O)NC2CCC(C(=O)O)CC2)CCCC1)C(=O)Oc1ccc2c(c1)CCC2 (stereo not given in full)",
    "discrete.label": "no (0)"
  }
]

Test call for this compound, please: O=C(N[C@@H](Cc1ccccc1)[C@@H](O)C(=O)N1C[C@@H](O)[C@@H](O)C1)c1cc2cc(Cl)ccc2[nH]1
no (0)

Item: CCCc1cc(=O)[nH]c(=S)[nH]1
no (0)

====

Read-out: Thrombomodulin, THBD (gene 7056)
protocol.description: BSK_CASM3C_Thrombomodulin: BioMAP Diversity Plus: CASM3C Assay for Thrombomodulin Biomarker Activity (AID 2283051);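 further: thrombomodulin protein level measured by ELISA 24 h after dosing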
condition.label: primary human coronary artery smooth muscle cells; actives raise or lower the signal
The source made the active and inactive calls. The calls were made as follows: active = hit-call score of the fitted dose curve at least 0.9, where 1 is the maximum; inactive = score below 0.9.
Field 'call' accepts active, inactive

[
  {
    "compound": "Cc1ccc(C)c(C)c1",
    "discrete.label": "inactive"
  },
  {
    "compound": "CCOC(=O)C(C)(C)Oc1ccc(Cl)cc1",
    "discrete.label": "inactive"
  },
  {
    "compound": "C=CCc1ccc(O)c(OC)c1",
    "discrete.label": "inactive"
  }
]

Test call for this compound, please: NCC1(Cc2noc(=O)[nH]2)CCCCC1
inactive

Item: NCCO
active

Item: c1cc(-c2ccncc2)ccn1
inactive

Item: Cc1cc(=O)[nH]c(=S)[nH]1
inactive

Item: COc1cc(-c2nc(NC(=O)c3cc4cc(C)cc(C)c4n3CC(=O)O)sc2CCC2CCCCC2)c(OC)cc1Cl
inactive

Item: CCNc1cccc(C)c1
inactive

Item: CCCCCCCCCCO
inactive

Item: COc1cc(C=O)ccc1O
inactive

Item: CN1CCN(Cc2cc(-c3ccc4[nH]c(=O)oc4c3)co2)[C@@H](c2ccc(F)cc2)C1
inactive

Item: CCCc1cc(=O)[nH]c(=S)[nH]1
inactive

Item: CC1=C(/C=C/C(C)=C/C=C/C(C)=C/CO)C(C)(C)CCC1
active

====

protocol.description: TOX21_p53_BLA_p2_viability: Viability Assessment in the Tox21 HCT-116 p53 Agonism Beta-lactamase Assay, Phase 2 (AID 2283591);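 further: compound exposure lasted 16 h at 37 °C; actives lower the ATP signal meaning cytotoxicity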
Results filed as inconclusive are left out. Calls of active or inactive are those of the source. How the source made its calls: active means hit-call score of the fitted dose curve at least 0.9, where 1 is the maximum; inconclusive means response in the unintended direction; inactive means score below 0.9.
Field 'call' accepts yes (1) for active, no (0) for inactive

[
  {
    "molecule": "COCCOC[C@H](CC1(C(=O)NC2CCC(C(=O)O)CC2)CCCC1)C(=O)Oc1ccc2c(c1)CCC2 (stereo not given in full)",
    "discrete.label": "no (0)"
  },
  {
    "molecule": "Cc1cccc([N+](=O)[O-])c1C",
    "discrete.label": "no (0)"
  },
  {
    "molecule": "CC(C)(C)c1cc(O)c(C(C)(C)C)cc1O",
    "discrete.label": "no (0)"
  },
  {
    "molecule": "COc1ccc(S(=O)(=O)N2C(=O)[C@@](c3ccccc3OC)(N3C[C@H](O)C[C@H]3C(=O)N(C)C)c3cc(Cl)ccc32)c(OC)c1",
    "discrete.label": "yes (1)"
  }
]

Next:
Test call for this molecule, please: CC1=C(/C=C/C(C)=C/C=C/C(C)=C/CO)C(C)(C)CCC1
no (0)

====

protocol.description: APR_HepG2_StressKinase_72hr: Apredica 72-hour HepG2 Assay for Stress Kinase (AID 2282921)
condition.label: HepG2 stress kinase (phospho-c-Jun) imaging, actives raise or lower the signal
Calls of active or inactive are those of the source. Rule for the calls: active = hit-call score of the fitted dose curve at least 0.9, where 1 is the maximum; inactive = score below 0.9.
Field 'call' accepts active, inactive

[
  {
    "compound": "O=c1c(O)c(-c2ccc(O)c(O)c2)oc2cc(O)cc(O)c12",
    "discrete.label": "inactive"
  },
  {
    "compound": "CN[C@H]1CC[C@@H](c2ccc(Cl)c(Cl)c2)c2ccc(S(N)(=O)=O)cc21",
    "discrete.label": "active"
  },
  {
    "compound": "O=C(O)Cc1ccccc1Nc1c(Cl)cccc1Cl",
    "discrete.label": "inactive"
  },
  {
    "compound": "Clc1cc(Cl)c(Cl)cc1Cl",
    "discrete.label": "inactive"
  }
]

Test call for this compound, please: COc1cc(C=O)ccc1O
inactive

====

protocol.description: Tanguay_ZF_120hpf_TR_legacy: (Legacy) Oregon State University Tanguay Lab 120 Hour Post-fertilization zebrafish Assay for Touch Response (AID 2283667)
Inconclusive results are not listed. Active and inactive are the calls of the source. The calls were made as follows: active = hit-call score of the fitted dose curve at least 0.9, where 1 is the maximum; inconclusive = response in the unintended direction; inactive = score below 0.9.
Field 'call' accepts active, inactive

[
  {
    "molecule": "COCCOCCOC",
    "discrete.label": "inactive"
  },
  {
    "molecule": "CCCCCCCCCCO",
    "discrete.label": "inactive"
  },
  {
    "molecule": "O=C(OCCCCCOC(=O)c1ccccc1)c1ccccc1",
    "discrete.label": "inactive"
  },
  {
    "molecule": "Cc1ccc(Cl)cc1",
    "discrete.label": "inactive"
  },
  {
    "molecule": "CCCCCCCC=O",
    "discrete.label": "inactive"
  },
  {
    "molecule": "CC1(C)CC(N=C=O)CC(C)(CN=C=O)C1 (stereo unspecified)",
    "discrete.label": "inactive"
  }
]

Test call for this molecule, please: C[Si]1(C)O[Si](C)(C)O[Si](C)(C)O[Si](C)(C)O1
inactive

Item: CCCCOC(=O)CCCCCCCCC(=O)OCCCC
inactive

Item: NC(=O)Cn1c(=O)cc(CCN2CCN(c3nccc4sccc34)CC2)c2ccc(F)cc21
inactive

Item: Cc1ccc(C(C)C)c(O)c1
inactive

Item: Cc1cc(=O)[nH]c(=S)[nH]1
inactive

Item: CCCCN(CCCC)CCCC
inactive

Item: CC(C)c1ccc(C(=O)N=C(N)N)cc1S(C)(=O)=O
inactive

Item: Nc1ccccc1N
active

Item: Clc1cc(Cl)c(Cl)cc1Cl
inactive

Item: CC(C)(C)c1cc(O)c(C(C)(C)C)cc1O
active

Item: Cc1ccc2ncccc2c1
inactive

Item: Cc1cccc(Nc2cc(Cl)nc(SCC(=O)O)n2)c1C
inactive

Item: CC(=O)OC/C=C(\C)CCC=C(C)C
inactive

Item: Cc1c(C(=O)O)c(O)cc2c1C(=O)c1c(O)c([C@@H]3O[C@H](CO)[C@@H](O)[C@H](O)[C@H]3O)c(O)c(O)c1C2=O
inactive

Item: CC(=O)OCCOCCOCCOC(C)=O
inactive
